# test_method_notes: Intrinsic permeability from basolateral to apical side in human Caco2 cells at 10 uM
# Format: ADME, cell-based
# conditions: Caco-2, read-out: permeability
measurement_name: Papp B→A at 10 µM

Query block: Using the record for `CS(=O)(=O)CCCOc1cccc2c1ccn2-c1ccnc(N[C@H]2CC[C@H](C(=O)N3CCC(O)CC3)CC2)n1` , report its Papp B→A at 10 µM.
Result block: 11.5 ×10⁻⁶ cm/s

----------
# target: Casein kinase I isoform delta (Homo sapiens) (UniProt P48730)
# Sequence (P48730 whole entry, looked up, canonical isoform): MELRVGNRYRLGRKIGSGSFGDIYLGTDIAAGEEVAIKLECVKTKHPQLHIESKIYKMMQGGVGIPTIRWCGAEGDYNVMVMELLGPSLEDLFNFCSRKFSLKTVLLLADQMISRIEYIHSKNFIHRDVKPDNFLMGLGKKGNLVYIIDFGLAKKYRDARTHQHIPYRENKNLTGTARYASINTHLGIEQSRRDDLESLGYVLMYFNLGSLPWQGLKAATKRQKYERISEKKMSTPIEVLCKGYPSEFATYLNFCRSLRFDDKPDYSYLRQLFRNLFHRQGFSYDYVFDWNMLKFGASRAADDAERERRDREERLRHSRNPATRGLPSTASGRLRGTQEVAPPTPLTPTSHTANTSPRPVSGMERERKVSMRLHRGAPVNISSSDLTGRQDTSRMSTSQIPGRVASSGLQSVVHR
# test_method_notes: Competitive binding affinity to CSNK1D (unknown origin) at 10 uM in presence of ATP relative to control
measurement_name: inhibition (%)
Dear colleague, please return just the value in %, with no unit written.

// below: answered compounds
>>> experimental_value("O[C@H]1CC[C@H](Nc2nccc(-c3n[nH]c4ccccc34)n2)CC1")
100
>>> experimental_value("O[C@H]1CC[C@H](Nc2nccc(-n3ncc4ccccc43)n2)CC1")
96
>>> experimental_value("O[C@H]1CC[C@H](Nc2nccc(-n3nnc4ccccc43)n2)CC1")
100

Here is the next item to consider.
Query block: Using the record for `O[C@H]1CC[C@H](Nc2nccc(-n3ccc4ccccc43)n2)CC1` , report its inhibition.
Result block: 91

----------
# target: UniProt Q9H093
# Sequence (Q9H093 whole entry): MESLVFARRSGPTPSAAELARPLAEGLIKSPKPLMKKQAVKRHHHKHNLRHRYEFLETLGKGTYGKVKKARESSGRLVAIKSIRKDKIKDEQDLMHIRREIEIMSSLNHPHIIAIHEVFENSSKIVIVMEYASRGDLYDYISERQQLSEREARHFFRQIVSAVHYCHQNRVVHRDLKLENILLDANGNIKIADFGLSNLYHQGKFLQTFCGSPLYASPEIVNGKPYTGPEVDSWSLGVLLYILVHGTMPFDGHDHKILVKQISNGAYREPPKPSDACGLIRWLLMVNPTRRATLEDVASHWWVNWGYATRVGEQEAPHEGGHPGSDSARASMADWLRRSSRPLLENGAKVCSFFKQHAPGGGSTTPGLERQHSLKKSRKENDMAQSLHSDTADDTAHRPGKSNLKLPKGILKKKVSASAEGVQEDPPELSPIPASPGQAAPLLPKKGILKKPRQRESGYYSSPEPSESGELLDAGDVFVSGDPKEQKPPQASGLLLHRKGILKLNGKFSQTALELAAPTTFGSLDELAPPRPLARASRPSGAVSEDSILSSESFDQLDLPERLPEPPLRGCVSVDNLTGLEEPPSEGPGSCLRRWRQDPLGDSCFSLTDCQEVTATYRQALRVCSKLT
measurement_name: Kd (nM)
Dear colleague, please return just the value in nM, with no unit written.

Query block: Using the record for `CS(=O)(=O)CCCOc1cccc2c1ccn2-c1ccnc(N[C@H]2CC[C@H](C(=O)N3CCC(O)CC3)CC2)n1` , report its Kd.
Result block: 2600

----------
# target: Mitogen-activated protein kinase 1 (Homo sapiens)
# Sequence (P28482 whole entry): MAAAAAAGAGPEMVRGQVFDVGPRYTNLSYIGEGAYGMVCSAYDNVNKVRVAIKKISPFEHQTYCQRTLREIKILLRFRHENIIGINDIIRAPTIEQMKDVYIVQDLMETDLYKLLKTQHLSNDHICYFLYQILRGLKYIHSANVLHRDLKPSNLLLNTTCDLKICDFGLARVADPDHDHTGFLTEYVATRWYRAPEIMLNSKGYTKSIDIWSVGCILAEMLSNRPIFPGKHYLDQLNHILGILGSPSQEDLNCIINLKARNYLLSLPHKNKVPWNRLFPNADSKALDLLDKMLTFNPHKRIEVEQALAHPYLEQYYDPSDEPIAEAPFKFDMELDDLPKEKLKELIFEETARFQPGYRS
# test_method_notes: Competitive binding affinity to ERK2 (unknown origin) at 10 uM in presence of ATP relative to control
measurement_name: inhibition

>>> experimental_value("O=C([C@H]1CC[C@H](Nc2nccc(-n3nnc4ccccc43)n2)CC1)N1CCOCC1")
"86%"
>>> experimental_value("N[C@H]1CC[C@H](Nc2nccc(-n3nnc4ccccc43)n2)CC1")
"< 50%"

Query block: Using the record for `O[C@H]1CC[C@H](Nc2nccc(-n3ccc4ccccc43)n2)CC1` , report its inhibition.
Result block: < 50%

Query block: Using the record for `O[C@H]1CC[C@H](Nc2nccc(-n3nnc4ccccc43)n2)CC1` , report its inhibition.
Result block: < 50%

Query block: Using the record for `O[C@H]1CC[C@H](Nc2nccc(-n3ncc4ccccc43)n2)CC1` , report its inhibition.
Result block: < 50%

Query block: Using the record for `O[C@H]1CC[C@H](Nc2nccc(-c3n[nH]c4ccccc34)n2)CC1` , report its inhibition.
Result block: 82%

Query block: Using the record for `CS(=O)(=O)CCCOc1cccc2c1ccn2-c1ccnc(N[C@H]2CC[C@H](C(=O)N3CCC(O)CC3)CC2)n1` , report its inhibition.
Result block: > 85%

----------
# target: Calcium/calmodulin-dependent protein kinase type II subunit gamma (Homo sapiens)
# test_method_notes: Competitive binding affinity to CAMK2G (unknown origin) at 10 uM in presence of ATP relative to control
measurement_name: inhibition (%)
Dear colleague, please return just the value in %, with no unit written.

>>> experimental_value("O[C@H]1CC[C@H](Nc2nccc(-c3n[nH]c4ccccc34)n2)CC1")
88

Query block: Tell me reported inhibition for `O[C@H]1CC[C@H](Nc2nccc(-n3ccc4ccccc43)n2)CC1` , tested with Calcium/calmodulin-dependent protein kinase type II subunit gamma (Homo sapiens).
Result block: 67

Query block: Tell me reported inhibition for `O[C@H]1CC[C@H](Nc2nccc(-n3nnc4ccccc43)n2)CC1` , tested with Calcium/calmodulin-dependent protein kinase type II subunit gamma (Homo sapiens).
Result block: 69

Query block: Tell me reported inhibition for `O[C@H]1CC[C@H](Nc2nccc(-n3ncc4ccccc43)n2)CC1` , tested with Calcium/calmodulin-dependent protein kinase type II subunit gamma (Homo sapiens).
Result block: 80

----------
# target: Calcium/calmodulin-dependent protein kinase type II subunit delta (Homo sapiens) (UniProt Q13557)
# Sequence (Q13557 whole entry): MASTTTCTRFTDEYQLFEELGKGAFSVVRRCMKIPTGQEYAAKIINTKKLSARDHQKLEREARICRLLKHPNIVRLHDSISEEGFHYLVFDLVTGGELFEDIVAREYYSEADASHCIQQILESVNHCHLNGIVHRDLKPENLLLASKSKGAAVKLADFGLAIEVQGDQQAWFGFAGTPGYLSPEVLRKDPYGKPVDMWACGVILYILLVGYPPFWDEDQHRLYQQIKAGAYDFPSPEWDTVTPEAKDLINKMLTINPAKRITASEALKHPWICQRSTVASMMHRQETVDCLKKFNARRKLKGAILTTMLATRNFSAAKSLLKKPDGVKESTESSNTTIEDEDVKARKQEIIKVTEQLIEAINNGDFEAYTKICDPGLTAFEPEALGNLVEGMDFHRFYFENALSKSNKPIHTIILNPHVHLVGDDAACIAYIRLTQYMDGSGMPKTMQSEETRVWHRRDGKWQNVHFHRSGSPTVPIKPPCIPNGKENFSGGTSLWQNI
# test_method_notes: Competitive binding affinity to CAMK2D (unknown origin) at 10 uM in presence of ATP relative to control
// label = YES if inhibition is not less than 80%, otherwise NO

>>> discrete_label("N[C@H]1CC[C@H](Nc2nccc(-n3nnc4ccccc43)n2)CC1")
"YES"
>>> discrete_label("O=C([C@H]1CC[C@H](Nc2nccc(-n3nnc4ccccc43)n2)CC1)N1CCOCC1")
"NO"
>>> discrete_label("O[C@H]1CC[C@H](Nc2nccc(-n3nnc4ccccc43)n2)CC1")
"NO"
>>> discrete_label("O[C@H]1CC[C@H](Nc2nccc(-n3ncc4ccccc43)n2)CC1")
"YES"
>>> discrete_label("O[C@H]1CC[C@H](Nc2nccc(-n3ccc4ccccc43)n2)CC1")
"YES"

Note: attention shifts to another entry.
Query block: I'd appreciate it if you could say whether `O[C@H]1CC[C@H](Nc2nccc(-c3n[nH]c4ccccc34)n2)CC1` has inhibition at least equal to 80%.
Result block: YES

----------
# target: Platelet-derived growth factor receptor alpha (Homo sapiens) (UniProt P16234)
# Sequence (P16234 whole entry): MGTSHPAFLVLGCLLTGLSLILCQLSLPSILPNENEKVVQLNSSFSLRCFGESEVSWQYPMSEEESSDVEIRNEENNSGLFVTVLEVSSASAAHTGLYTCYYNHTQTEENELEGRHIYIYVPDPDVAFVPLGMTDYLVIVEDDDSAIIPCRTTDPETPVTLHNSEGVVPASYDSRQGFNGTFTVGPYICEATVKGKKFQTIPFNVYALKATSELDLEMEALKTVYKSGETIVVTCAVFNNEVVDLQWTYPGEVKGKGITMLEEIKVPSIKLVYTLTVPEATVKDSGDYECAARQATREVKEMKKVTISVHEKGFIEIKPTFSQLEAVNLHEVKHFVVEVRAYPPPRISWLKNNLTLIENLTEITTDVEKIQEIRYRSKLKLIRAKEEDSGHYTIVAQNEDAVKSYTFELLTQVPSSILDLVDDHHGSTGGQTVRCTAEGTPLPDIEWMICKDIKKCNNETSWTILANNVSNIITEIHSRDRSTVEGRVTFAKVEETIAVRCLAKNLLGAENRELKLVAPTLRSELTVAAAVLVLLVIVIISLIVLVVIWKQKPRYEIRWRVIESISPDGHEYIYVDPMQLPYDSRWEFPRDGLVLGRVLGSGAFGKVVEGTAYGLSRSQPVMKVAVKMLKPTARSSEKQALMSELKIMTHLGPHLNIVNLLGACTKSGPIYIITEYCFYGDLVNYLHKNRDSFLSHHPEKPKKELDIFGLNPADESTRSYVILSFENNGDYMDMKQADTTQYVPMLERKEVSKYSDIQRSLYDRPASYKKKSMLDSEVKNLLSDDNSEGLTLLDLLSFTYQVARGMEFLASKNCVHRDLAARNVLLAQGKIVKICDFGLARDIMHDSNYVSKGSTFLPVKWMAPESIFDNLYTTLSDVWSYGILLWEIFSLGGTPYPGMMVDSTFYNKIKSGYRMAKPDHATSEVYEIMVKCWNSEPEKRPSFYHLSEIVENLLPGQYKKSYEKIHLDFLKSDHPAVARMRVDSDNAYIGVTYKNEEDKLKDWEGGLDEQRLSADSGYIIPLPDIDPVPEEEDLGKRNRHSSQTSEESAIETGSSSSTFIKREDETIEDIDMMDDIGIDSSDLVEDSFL
# test_method_notes: Competitive binding affinity to PDGFRA (unknown origin) at 10 uM in presence of ATP relative to control
Recorded measurements of inhibition, one per entry

// below: answered molecules
>>> experimental_value("O[C@H]1CC[C@H](Nc2nccc(-n3nnc4ccccc43)n2)CC1")
"< 50%"
>>> experimental_value("O[C@H]1CC[C@H](Nc2nccc(-n3ccc4ccccc43)n2)CC1")
"< 50%"
>>> experimental_value("O[C@H]1CC[C@H](Nc2nccc(-n3ncc4ccccc43)n2)CC1")
"72%"
>>> experimental_value("O[C@H]1CC[C@H](Nc2nccc(-c3n[nH]c4ccccc34)n2)CC1")
"98%"
>>> experimental_value("N[C@H]1CC[C@H](Nc2nccc(-n3nnc4ccccc43)n2)CC1")
"< 50%"

Query block: Using the record for `O=C([C@H]1CC[C@H](Nc2nccc(-n3nnc4ccccc43)n2)CC1)N1CCOCC1` , report its inhibition.
Result block: < 50%

----------
# target: NUAK family SNF1-like kinase 2 (Homo sapiens) (UniProt Q9H093)
# test_method_notes: Competitive binding affinity to SNARK (unknown origin) at 10 uM in presence of ATP relative to control
Recorded measurements of inhibition, one per entry

// below: answered compounds
>>> experimental_value("CS(=O)(=O)CCCOc1cccc2c1ccn2-c1ccnc(N[C@H]2CC[C@H](C(=O)N3CCC(O)CC3)CC2)n1")
"> 85%"
>>> experimental_value("O[C@H]1CC[C@H](Nc2nccc(-n3nnc4ccccc43)n2)CC1")
"94%"
>>> experimental_value("O[C@H]1CC[C@H](Nc2nccc(-n3ncc4ccccc43)n2)CC1")
"78%"

Here is the next item to consider.
Query block: Using the record for `O[C@H]1CC[C@H](Nc2nccc(-n3ccc4ccccc43)n2)CC1` , report its inhibition.
Result block: < 50%

----------
# target: Serine/threonine-protein kinase Nek9 (Homo sapiens) (UniProt Q8TD19)
# Sequence (whole entry): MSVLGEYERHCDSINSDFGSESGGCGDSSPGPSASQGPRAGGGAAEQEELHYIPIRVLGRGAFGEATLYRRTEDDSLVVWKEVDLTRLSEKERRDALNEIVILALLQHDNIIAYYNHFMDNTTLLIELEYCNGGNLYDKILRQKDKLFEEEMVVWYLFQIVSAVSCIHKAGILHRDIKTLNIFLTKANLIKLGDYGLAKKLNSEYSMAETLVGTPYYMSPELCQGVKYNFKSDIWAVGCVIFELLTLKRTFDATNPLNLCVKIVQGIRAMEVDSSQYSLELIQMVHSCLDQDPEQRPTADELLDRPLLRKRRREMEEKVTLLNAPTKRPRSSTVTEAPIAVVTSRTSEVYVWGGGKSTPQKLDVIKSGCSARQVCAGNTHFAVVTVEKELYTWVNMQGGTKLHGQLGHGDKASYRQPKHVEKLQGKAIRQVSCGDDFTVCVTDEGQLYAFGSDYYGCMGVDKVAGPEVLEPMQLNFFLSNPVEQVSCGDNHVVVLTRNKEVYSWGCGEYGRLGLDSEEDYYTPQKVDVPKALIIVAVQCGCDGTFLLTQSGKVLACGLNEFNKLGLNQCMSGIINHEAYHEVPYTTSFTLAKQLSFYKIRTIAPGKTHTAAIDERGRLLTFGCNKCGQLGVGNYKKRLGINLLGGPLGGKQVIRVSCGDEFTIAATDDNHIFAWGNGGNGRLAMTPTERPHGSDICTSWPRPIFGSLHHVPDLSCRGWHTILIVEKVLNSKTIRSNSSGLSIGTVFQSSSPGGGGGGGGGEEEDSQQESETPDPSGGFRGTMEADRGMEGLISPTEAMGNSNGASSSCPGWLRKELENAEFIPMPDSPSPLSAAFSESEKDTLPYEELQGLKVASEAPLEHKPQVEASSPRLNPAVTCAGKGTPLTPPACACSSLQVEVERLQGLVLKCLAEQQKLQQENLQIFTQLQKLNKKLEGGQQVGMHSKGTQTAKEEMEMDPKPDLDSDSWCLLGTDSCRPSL
# test_method_notes: Competitive binding affinity to NEK9 (unknown origin) at 10 uM in presence of ATP relative to control
Recorded measurements of inhibition, one per entry

>>> experimental_value("O=C([C@H]1CC[C@H](Nc2nccc(-n3nnc4ccccc43)n2)CC1)N1CCOCC1")
"< 50%"

Query block: Using the record for `N[C@H]1CC[C@H](Nc2nccc(-n3nnc4ccccc43)n2)CC1` , report its inhibition.
Result block: < 50%

Query block: Using the record for `O[C@H]1CC[C@H](Nc2nccc(-n3ncc4ccccc43)n2)CC1` , report its inhibition.
Result block: < 50%

Query block: Using the record for `O[C@H]1CC[C@H](Nc2nccc(-c3n[nH]c4ccccc34)n2)CC1` , report its inhibition.
Result block: < 50%

Query block: Using the record for `O[C@H]1CC[C@H](Nc2nccc(-n3ccc4ccccc43)n2)CC1` , report its inhibition.
Result block: < 50%

Query block: Using the record for `O[C@H]1CC[C@H](Nc2nccc(-n3nnc4ccccc43)n2)CC1` , report its inhibition.
Result block: 81%
